- Test system: K4 kissing-loop RNA reporter;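 further: bound reporter read as fluorescence of individual clusters on recovered sequencing chips by microscopy, with normalized cluster intensities fitted with a binding model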
- assay-remarks: apparent KD of K4 kissing-loop reporter; higher = weaker reporter binding
- conditions: Eterna round: R107; input ligand: arginine 13.2 mM
quantity-name: apparent KD of K4 kissing-loop reporter (nM)
Respond numerically; units are nM and should not be typed.

Check out these entries, answers already filled in.
# sequence-content, system-under-test, apparent KD of K4 kissing-loop reporter, nM
measured = [
    ("GCAGUGAUGUUGCUGAUGUGCAGUGGUAGUCGAGGACCGGUACGGCCGCCACUCGGUGAGAAUUUGCUAAUACAUCGAUAAGUGA [XVII]", "K4 kissing-loop RNA reporter", 614),
    ("AGAGUUAUGCGAGGAUAUGCGGUUAGUACUCAAAGAGUACUAACGGCAGAGUGAUGUUCUGUGAAAGCAGAAGGUGCAUAACUCA [Omei KL FMN B SS B v9]", "K4 kissing-loop RNA reporter", 523),
    ("ACGUAGCAGGCGGCCGCCACUCCGCAUAUGGAUCUCGAGUGAUGUUUGAGGGUGCCCAUCACAGCGAGGACCGGGCCAAUUAAGC [theeternabot_sameState_KL_Trp_B_10]", "K4 kissing-loop RNA reporter", 105),
    ("ACCUACGAUCACGAAAGUGAUUGUAGGAUCUAGGAUAUGCUGAAGAGCAGAAGGAGAGUGAUGUUCUCAUCUCACGAAAGUGAGA [whbob_Ex_FMNA__2th190]", "K4 kissing-loop RNA reporter", 206),
    ("UAGUCCUAGUGAUCGUUAUCAAGUGGUGGGCGAGGACCGGUACGGCCGCCACUCGACUAUGCAGUGAUGUUGCAAUCCGGACAAU [Exclusion - Tryptophan A (Freestyle 14)]", "K4 kissing-loop RNA reporter", 238),
]

Would you kindly look at the next entry?
apparent KD of K4 kissing-loop reporter recorded for this sequence, GUUUCUUGGAAACAAGGACCGCUAACCGAAGGAGCGAGUGAAAACUCAGGUAGGUCGCGGUAGCGGAGUGAUGUUCCGCGUUUAC [Excluson Arginine A GF 15] , is 129

* * *

- System: MS2 coat protein
- assay-remarks: apparent KD of MS2 coat protein; designed switch direction (-1 OFF switch, 1 ON switch): -1; higher = weaker reporter binding
- conditions: Eterna round: R95; input ligand: FMN 200 uM
quantity-name: apparent KD of MS2 coat protein
Give the value; after it, write the unit.

# sequence-content, system-under-test, apparent KD of MS2 coat protein
data = [
    ("UUUAAUUUUUUUUUUUUACAAGCUUUUUGCUCGUCUUAUACAUGAGGAUCACCCAUGUGGGUAGAAAGUAAAUUAUC [JMF 46] (puzzle: Sensor v3, turn-off variant 2)", "MS2 coat protein", "13.7 nM"),
    ("AAUGAUGAUGUGAGGAUAUACAUAGUUAGACCGUAGUAGAAGGCACAUGAGGAUCACCCAUGUAGAUGUUAGGU [JR_BME4_Sub003] (puzzle: Brourd's mod of Exclusion 4)", "MS2 coat protein", "21.5 nM"),
]

# apparent KD of MS2 coat protein of CAGUACUGAGGAUAUACAUGAGGAUCACCCAUGUGUUCCAGCUAGGAAACUAGCAAAGGUAGAAGGCAGUACUG [salish99_ex3_r3_065] (puzzle: Exclusion 3) = 587 nM

The value of apparent KD of MS2 coat protein measured for the sequence UUGAGCAGACGGAGAUCCAACAUGAGGAUCACCCAUGUCUCAUAAGCUUUUUGUUCAUCUUAUUGUACCUUGGUGCU [Mat - Sensor v3 - turn-off var 1 - JL Mod - D23] (puzzle: Sensor v3, turn-off variant 1) turned out to be 47 nM

AGAGAGUCAGGAUAUCGAAGGGAGAGAAAAGGAGAGAGGUACGAGAAGGGACAUGAGGAUCACCCAUGUAGGUG [JR_Exclusion4)Sub015] (puzzle: Exclusion 4) yielded apparent KD of MS2 coat protein of 279 nM
